- Experimental System: human M2 receptor (Homo sapiens, UniProt P08172)
- Construct: purchased Perkin-Elmer RBHM2M; host or cells: CHO cell membranes
- Sequence (P08172 1-466): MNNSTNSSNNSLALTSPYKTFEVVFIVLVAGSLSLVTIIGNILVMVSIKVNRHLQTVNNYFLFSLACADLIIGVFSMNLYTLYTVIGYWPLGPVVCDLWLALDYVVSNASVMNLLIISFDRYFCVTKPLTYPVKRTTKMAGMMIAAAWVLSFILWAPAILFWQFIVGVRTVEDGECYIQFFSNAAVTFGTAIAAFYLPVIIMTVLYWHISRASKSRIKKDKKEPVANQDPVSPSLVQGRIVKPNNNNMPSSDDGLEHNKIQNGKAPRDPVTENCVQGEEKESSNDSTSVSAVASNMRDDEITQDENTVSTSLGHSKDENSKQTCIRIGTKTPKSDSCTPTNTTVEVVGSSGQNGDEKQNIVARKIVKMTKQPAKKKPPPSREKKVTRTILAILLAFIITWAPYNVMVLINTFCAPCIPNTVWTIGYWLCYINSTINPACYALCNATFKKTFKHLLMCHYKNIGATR
- Assay Method Text: hM2 receptor GTPγS binding
- Type: biochemical
- Setup Conditions: CHO membranes expressing cloned human M2, [35S]GTPγS binding; read-out: hM2 EC50
Measure: EC50 (µM)
Give your result in µM as a bare value.

Exercise: Recall the reported EC50 of CCOC(=O)N1CCC(N2CCC(C3C(=O)Nc4ccccc43)CC2)C1 (stereo not drawn) [Example 13] when tested on human M2 receptor (Homo sapiens, UniProt P08172).
Key: 3.54

Exercise: Report EC50 from human M2 receptor (Homo sapiens, UniProt P08172) testing of CCOC(=O)N1CC[C@@H](N2CCC(n3c(=O)[nH]c4ccccc43)CC2)C1 [Example 16]
Key: 3.29

----------
Below: a set of entries, each annotated with reported EC50.
- Experimental System: hM3 (human Muscarinic receptor subtype 3) (Homo sapiens)
- Sequence (P20309 whole entry): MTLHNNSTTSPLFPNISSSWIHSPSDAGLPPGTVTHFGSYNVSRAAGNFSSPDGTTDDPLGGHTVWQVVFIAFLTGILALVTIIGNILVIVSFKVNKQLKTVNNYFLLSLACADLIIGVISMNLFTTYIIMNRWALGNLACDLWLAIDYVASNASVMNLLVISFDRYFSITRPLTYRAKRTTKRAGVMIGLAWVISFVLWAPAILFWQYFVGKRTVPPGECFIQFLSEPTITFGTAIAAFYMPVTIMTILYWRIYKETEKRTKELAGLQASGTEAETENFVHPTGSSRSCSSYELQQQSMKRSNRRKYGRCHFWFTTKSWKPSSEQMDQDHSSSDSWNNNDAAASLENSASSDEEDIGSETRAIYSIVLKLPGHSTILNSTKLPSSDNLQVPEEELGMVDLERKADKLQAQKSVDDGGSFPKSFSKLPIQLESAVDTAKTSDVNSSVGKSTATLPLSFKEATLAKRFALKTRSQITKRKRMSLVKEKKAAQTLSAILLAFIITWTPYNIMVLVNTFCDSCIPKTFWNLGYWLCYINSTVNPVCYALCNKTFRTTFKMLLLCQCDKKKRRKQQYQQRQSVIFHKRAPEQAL
- Assay Method Text: Human M3 calcium mobilization FLIPR assay
- Setup Conditions: CHO cells expressing hM3, Ca2+ release

Field: example entries. Status: answers known.
Compound	EC50
O=C1CCCN1CCC(=O)N1CC[C@H](N2CCC(N3C(=O)Cc4ccccc43)CC2)C1 [Example 29]	2.5 µM
CCOC(=O)N1CCC(N2CCC(C3C(=O)Nc4ccccc43)CC2)C1 (stereo not drawn) [Example 13]	> 40 µM
CCOC(=O)N1CC[C@@H](N2CCC(n3c(=O)[nH]c4ccc(F)cc43)CC2)C1 (single isomer, unassigned) [Example 36]	> 40 µM
CCOC(=O)N1CC[C@@H](N2CCC(n3c(=O)[nH]c4ccccc43)CC2)C1 [Example 16]	> 40 µM

Exercise: Check the records and state EC50 for O=C(C1CCCC1)N1CC[C@H](N2CCC(n3c(=O)[nH]c4ccccc43)CC2)C1 [Example 19]
Key: 2.08 µM

Exercise: Return EC50 for the following compound: CCOC(=O)N1CC[C@H](N2CCC(N3C(=O)Cc4ccccc43)CC2)C1 [Example 26]
Key: > 40 µM

Exercise: Read off the recorded EC50 for CCOC(=O)N1CC[C@H](N2CCC(n3c(=O)[nH]c4ccc(C#N)cc43)CC2)C1 [Example 41]
Key: 2.68 µM

Exercise: Supply reported EC50 belonging to this compound: CCOC(=O)N1CC[C@H](N2CCC(n3c(=O)[nH]c4ccc(F)cc43)CC2)C1 (single isomer, unassigned) [Example 35]
Key: 5.96 µM

Exercise: Answer with reported EC50 of Cn1c(=O)n(C2CCN([C@H]3CCN(C(=O)CCN4CCCC4=O)C3)CC2)c2ccccc21 [Example 24]
Key: > 40 µM

----------
- Experimental System: human M2 receptor (Homo sapiens, UniProt P08172)
- Construct: purchased Perkin-Elmer RBHM2M; host or cells: CHO cell membranes
- Assay Method Text: hM2 receptor GTPγS binding
- Assay type: biochemical
Quick list: EC50 per entry.
Numeric answer only, unit µM assumed.

Some solved cases for reference:
Compound	EC50 (µM)
CCOC(=O)N1CC[C@H](N2CCC(n3c(=O)[nH]c4ccc(Cl)cc43)CC2)C1 [Example 42]	1.2
CCOC(=O)N1CC[C@@H](N2CCC(n3c(=O)[nH]c4ccc(F)cc43)CC2)C1 (single isomer, unassigned) [Example 36]	4.65
CCOC(=O)N1CC[C@H](N2CCC(N3C(=O)Cc4ccccc43)CC2)C1 [Example 26]	7.45

Exercise: Let me know recorded EC50 for O=C1CCCN1CCC(=O)N1CC[C@H](N2CCC(N3C(=O)Cc4ccccc43)CC2)C1 [Example 29] , thanks.
Key: 1.75

Exercise: Please report the measured EC50 for O=C(C1CCCC1)N1CC[C@H](N2CCC(n3c(=O)[nH]c4ccccc43)CC2)C1 [Example 19]
Key: 0.245

----------
- Experimental System: hM5 (human Muscarinic receptor subtype 5) (Homo sapiens)
- Sequence (P08912 1-532): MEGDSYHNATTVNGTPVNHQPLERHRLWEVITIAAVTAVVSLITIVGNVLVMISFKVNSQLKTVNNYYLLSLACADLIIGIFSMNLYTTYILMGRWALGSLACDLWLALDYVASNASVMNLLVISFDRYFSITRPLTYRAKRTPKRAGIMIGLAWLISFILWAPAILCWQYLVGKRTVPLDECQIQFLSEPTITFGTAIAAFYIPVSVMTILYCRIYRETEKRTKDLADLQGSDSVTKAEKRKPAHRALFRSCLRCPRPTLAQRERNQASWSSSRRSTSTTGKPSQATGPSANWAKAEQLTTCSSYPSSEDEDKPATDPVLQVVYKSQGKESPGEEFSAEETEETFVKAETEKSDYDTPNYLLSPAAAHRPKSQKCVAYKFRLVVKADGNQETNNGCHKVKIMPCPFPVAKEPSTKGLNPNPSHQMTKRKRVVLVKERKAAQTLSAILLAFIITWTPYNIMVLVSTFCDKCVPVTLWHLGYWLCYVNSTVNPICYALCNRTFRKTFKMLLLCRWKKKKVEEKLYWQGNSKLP
- Assay Method Text: Human M5 calcium mobilization FLIPR assay
- Setup Conditions: CHO cells expressing hM5, Ca2+ release
- Description: The compound activity in the present invention (EC50 or IC50) was measured using a 384 plate-based imaging assay that monitors drug induced intracellular Ca^2+ release in whole cells. […] Inhibition of hM3 and hM5 by compounds was determined by the decrease in fluorescent signal in response to 20 nM carbachol activation. […]
Measure: pEC50
Please report pEC50 as the negative decimal logarithm of the molar concentration, giving only the number.

Consider the following illustrative entries.
Compound	pEC50
O=C(C1CCCC1)N1CC[C@H](N2CCC(n3c(=O)[nH]c4ccccc43)CC2)C1	6.08
O=C1CCCN1CCC(=O)N1CC[C@H](N2CCC(N3C(=O)Cc4ccccc43)CC2)C1	6.15
CCOC(=O)N1CC[C@H](N2CCC(n3c(=O)[nH]c4ccc(F)cc43)CC2)C1 (single isomer, unassigned)	6.04
CCOC(=O)N1CC[C@H](N2CCC(N3C(=O)Cc4ccccc43)CC2)C1	6.47

With those in mind, consider the next compound.
Exercise: Enter recorded pEC50 with hM5 (human Muscarinic receptor subtype 5) (Homo sapiens) for `CCOC(=O)N1CC[C@H](N2CCC(n3c(=O)[nH]c4ccc(C#N)cc43)CC2)C1` here.
Key: 6.27

----------
- Experimental System: hM1 (human Muscarinic receptor subtype 1) (Homo sapiens, UniProt P11229)
- Assay Method Text: Human M1 calcium mobilization FLIPR assay
- Setup Conditions: CHO cells expressing hM1, Ca2+ release
Measured EC50, listed per entry.
Kindly provide the numeric value in nM only, without the unit symbol.

Exercise: Please look at this compound and report its EC50: O=C1CCCN1CCC(=O)N1CC[C@H](N2CCC(N3C(=O)Cc4ccccc43)CC2)C1 [Example 29]
Key: 3.5

Exercise: Give the reported EC50 for this compound. O=C(C1CCCC1)N1CC[C@H](N2CCC(n3c(=O)[nH]c4ccccc43)CC2)C1 [Example 19]
Key: 9.6

Exercise: Identify the reported EC50 for the following entry. Cn1cccc1C(=O)N1CC[C@H](N2CCC(n3c(=O)[nH]c4ccccc43)CC2)C1 [Example 21]
Key: 1180

----------
- Experimental System: hM1 (human Muscarinic receptor subtype 1) (Homo sapiens)
- Sequence (P11229 1-460): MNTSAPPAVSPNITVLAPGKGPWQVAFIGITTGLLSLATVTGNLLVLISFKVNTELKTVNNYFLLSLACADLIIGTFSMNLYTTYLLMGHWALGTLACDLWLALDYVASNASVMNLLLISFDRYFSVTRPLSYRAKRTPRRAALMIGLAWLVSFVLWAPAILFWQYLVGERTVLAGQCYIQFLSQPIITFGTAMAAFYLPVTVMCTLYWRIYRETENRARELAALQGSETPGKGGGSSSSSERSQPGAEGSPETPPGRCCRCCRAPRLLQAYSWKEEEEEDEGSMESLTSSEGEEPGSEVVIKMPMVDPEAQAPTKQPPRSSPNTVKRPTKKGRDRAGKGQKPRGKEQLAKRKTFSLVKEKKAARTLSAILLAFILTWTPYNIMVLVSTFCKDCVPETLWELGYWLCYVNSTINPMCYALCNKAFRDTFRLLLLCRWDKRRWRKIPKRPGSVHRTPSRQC
- Assay Method Text: Human M1 calcium mobilization FLIPR assay
- Setup Conditions: CHO cells expressing hM1, Ca2+ release
Measure: pEC50
Scale for pEC50: -log10 of concentration given in mol/L; no unit attached.

Reference set, count: 3
Molecule	Experimental System	pEC50
CCOC(=O)N1CC[C@H](N2CCC(N3C(=O)Cc4ccccc43)CC2)C1	hM1 (human Muscarinic receptor subtype 1) (Homo sapiens)	7.51
CCOC(=O)N1CC[C@H](N2CCC(n3c(=O)[nH]c4ccc(OC)cc43)CC2)C1 (single isomer, unassigned)	hM1 (human Muscarinic receptor subtype 1) (Homo sapiens)	7.66
CCOC(=O)N1CCC(N2CCC(n3nnc4ccccc43)CC2)C1 (stereo not shown)	hM1 (human Muscarinic receptor subtype 1) (Homo sapiens)	6.21

Exercise: Specify pEC50 for CCOC(=O)N1CC[C@H](N2CCC(n3c(=O)[nH]c4ccc(F)cc43)CC2)C1 (single isomer, unassigned) and stop.
Key: 8.35

Origin of measurements: patent US20100173935A1
